// provenance: patent US6608103B2

Exercise: state measured Absorbance for each of the compounds provided.
Test system: BAEC
Assay: Inhibitory action against FGF activity, MTT assay on BAEC with FGF 20 ng/ml
Assay type: cell-based, bovine
Settings: MTT, 48 hrs, FGF 20 ng/ml + sample 10 μM
Give bare numbers.

compound="CC(C)=CCC/C(C)=C/CC/C(C)=C/CC[C@]1(C)CCc2cc(O)cc(C)c2O1 (racemic)" study_target=BAEC test_value=0.003

Batch request: Absorbance per item, same order as input.
1. CC(C)=CCC/C(C)=C/CC/C(C)=C/CC[C@]1(C)CCc2cc(O)c(C)c(C)c2O1 (racemic)
2. CC(C)=CCC/C(C)=C/CC/C(C)=C/CC[C@]1(C)CCc2c(C)c(O)c(C)c(C)c2O1 (racemic)
3. CC(C)=CCC/C(C)=C/CC/C(C)=C/CC[C@]1(C)CCc2c(C)c(O)cc(C)c2O1 (racemic)

0.232
0.290
0.055

* * *

Tested on: BAEC
Test: Inhibition against lumen formation induced by FGF
Format: cell-based, bovine
Details: sample 10 μM + FGF 20 ng/ml
Attribute Measured: Number of Cells Forming Lumen/cm^2

compound="CC(C)=CCC/C(C)=C/CC/C(C)=C/CC[C@]1(C)CCc2cc(O)c(C)c(C)c2O1 (racemic) [DL-γ-Tocotrienol, γ-tocotrienol]" test_value="12.50 ± 3.20 /cm^2"

Batch request: Number of Cells Forming Lumen/cm^2 per item, same order as input.
1. CC(C)=CCC/C(C)=C/CC/C(C)=C/CC[C@]1(C)CCc2cc(O)cc(C)c2O1 (racemic) [DL-δ-Tocotrienol, δ-tocotrienol]
2. CC(C)=CCC/C(C)=C/CC/C(C)=C/CC[C@]1(C)CCc2c(C)c(O)c(C)c(C)c2O1 (racemic) [DL-α-Tocotrienol, α-tocotrienol]
3. CC(C)=CCC/C(C)=C/CC/C(C)=C/CC[C@]1(C)CCc2c(C)c(O)cc(C)c2O1 (racemic) [DL-β-Tocotrienol, β-tocotrienol]

["0.00 ± 0.00 /cm^2", "25.25 ± 1.55 /cm^2", "0.00 ± 0.00 /cm^2"]

* * *

System: BAEC
Assay: Effects of tocotrienols on multiplication of BAEC, MTT assay
Assay type: cell-based, bovine
Conditions: MTT, 0 hr, sample 10 μM
Attribute Measured: Absorbance

Illustrative cases are given below, each with its answer.
compound="CC(C)=CCC/C(C)=C/CC/C(C)=C/CC[C@]1(C)CCc2cc(O)c(C)c(C)c2O1 (racemic)" attribute_measured=Absorbance test_value="0.101 ± 0.002"
compound="CC(C)=CCC/C(C)=C/CC/C(C)=C/CC[C@]1(C)CCc2c(C)c(O)c(C)c(C)c2O1 (racemic)" attribute_measured=Absorbance test_value="0.090 ± 0.003"
compound="CC(C)=CCC/C(C)=C/CC/C(C)=C/CC[C@]1(C)CCc2c(C)c(O)cc(C)c2O1 (racemic)" attribute_measured=Absorbance test_value="0.084 ± 0.002"

In the following, a different compound is considered.
Name the recorded Absorbance of the item CC(C)=CCC/C(C)=C/CC/C(C)=C/CC[C@]1(C)CCc2cc(O)cc(C)c2O1 (racemic) in your answer. 0.103 ± 0.001

* * *

System: BAEC
Assay: Effects of tocotrienols on multiplication of BAEC, MTT assay
Assay type: cell-based, bovine
Details: MTT, 48 hrs, sample 10 μM
Attribute Measured: Absorbance
Numbers only.

Illustrative cases are given below, each with its answer.
compound="CC(C)=CCC/C(C)=C/CC/C(C)=C/CC[C@]1(C)CCc2c(C)c(O)c(C)c(C)c2O1 (racemic)" test_value=0.271
compound="CC(C)=CCC/C(C)=C/CC/C(C)=C/CC[C@]1(C)CCc2c(C)c(O)cc(C)c2O1 (racemic)" test_value=0.39
compound="CC(C)=CCC/C(C)=C/CC/C(C)=C/CC[C@]1(C)CCc2cc(O)c(C)c(C)c2O1 (racemic)" test_value=0.010

In the following, a different compound is considered.
Name the recorded Absorbance of the item CC(C)=CCC/C(C)=C/CC/C(C)=C/CC[C@]1(C)CCc2cc(O)cc(C)c2O1 (racemic) in your answer. 0.003
